- Tested on: Eubacterium rectale
- Experiment notes: growth AUC relative to DMSO control (median of replicates) (fraction); higher = more growth (less inhibition), active = hit call of the paper
- Assay conditions: 20 µM; 24 h
Value kind: growth AUC
Keep the answer to the number alone.

>  <Compound>
CC(C)N1C(=O)c2ccccc2NS1(=O)=O

>  <growth AUC>
1.1

$$$$
>  <Compound>
Cc1cc(C)nc(NC(=O)NS(=O)(=O)c2ccccc2C(=O)OC2COC2)n1

>  <growth AUC>
1.07

$$$$
>  <Compound>
CNC(=O)/C(=N\OC)c1ccccc1Oc1ccccc1

>  <growth AUC>
0.963

$$$$
>  <Compound>
ClC1=C(Cl)C2(Cl)C3COCC3C1(Cl)C2(Cl)Cl (centres undefined)

>  <growth AUC>
0.992

$$$$
>  <Compound>
CCCN(CCC)c1c([N+](=O)[O-])cc(C(C)C)cc1[N+](=O)[O-]

>  <growth AUC>
1.02

$$$$

Input: // query growth AUC value for entry CCOP(=S)(OCC)Oc1ccc(S(C)=O)cc1 (centres undefined)
Output: 0.878

Input: // query growth AUC value for entry CC(C)C1(C)N=C(c2ncccc2C(=O)O)NC1=O (centres undefined)
Output: 1.01

Input: // query growth AUC value for entry `COC(=O)NS(=O)(=O)c1ccc(N)cc1`
Output: 1.28

Input: // query growth AUC value for entry `Nc1nc(N)nc(Cl)n1`
Output: 0.971

Input: // query growth AUC value for entry `CCOC(=O)CCN(Cc1ccccc1)SN(C)C(=O)O/N=C(/C)SC`
Output: 1.08

Input: // query growth AUC value for entry `COP(=S)(OC)Oc1cc(Cl)c(Cl)cc1Cl`
Output: 0.945

Input: // query growth AUC value for entry `Nc1c(Cl)c(F)nc(OCC(=O)O)c1Cl`
Output: 0.918

Input: // query growth AUC value for entry `CCCN(CCC)c1c([N+](=O)[O-])cc(C(F)(F)F)cc1[N+](=O)[O-]`
Output: 1.01

Input: // query growth AUC value for entry `N#CN=C1SCCN1Cc1ccc(Cl)nc1`
Output: 0.979

Input: // query growth AUC value for entry `O=[N+]([O-])c1ccccc1`
Output: 1.07

Reference source for all entries: the supplement of paper PMC12669032
